Experiment: RNA encapsulation efficiency of LNPs (Ribogreen fluorescence assay)
Format: physicochemical
Conditions: LNP, sg:mRNA 1:2, N/P 6.0, 50/9/38/3; Table 4, Experiment 105
As shown below, each of these compounds has a reported % E value.
Response body: numeric value in %, unit text excluded.

Completed entries (count: 2):
CCCCC/C=C\C/C=C\CCCCCCCC(=O)OCC(COC(=O)CCC(OCCCCCCCC)OCCCCCCCC)COC(=O)OCCCN(CC)CC (centres unmarked) [Compound 1, reference compound]    99
CCCCCCCCCCOC(=O)CCCCCCCC(=O)OCC(COC(=O)CCC(OCCCCCCCC)OCCCCCCCC)COC(=O)OCCCN(CC)CC (centres unmarked) [Compound 59]    99

Per the records, this compound ( CCCCCCCCCC(C)OC(=O)CCCCCCCC(=O)OCC(COC(=O)CCC(OCCCCCCCC)OCCCCCCCC)COC(=O)OCCCN(CC)CC (centres unmarked) [Compound 94] ) has % E equal to 99

Briefly, % E measured for CCCCCCCCOC(CCC(=O)OCC(COC(=O)CCCCCCCCCCC(=O)OCCCCCCC)COC(=O)OCCCN(CC)CC)OCCCCCCCC (centres unmarked) [Compound 61] : 98

Entry CCCCC/C=C\C/C=C\CCCCCCCC(=O)OCC(COC(=O)CCC(OCCCCCCCC)OCCCCCCCC)COC(=O)OCCC1CCCN1C (centres unmarked) [Compound 24] , % E reported as 99
